Reference source: patent US20230056252A1

Please go through the items and note down their IC50.
assayedTarget: T1, CD3 expressed on cell-surface of primary human T cells (human, UniProt P07766 23-207; P04234 22-171)
T1 construct: also called cell-surface CD3; human CD3
T1 sequence (P07766 23-207 limits assumed, chain 1 of 2): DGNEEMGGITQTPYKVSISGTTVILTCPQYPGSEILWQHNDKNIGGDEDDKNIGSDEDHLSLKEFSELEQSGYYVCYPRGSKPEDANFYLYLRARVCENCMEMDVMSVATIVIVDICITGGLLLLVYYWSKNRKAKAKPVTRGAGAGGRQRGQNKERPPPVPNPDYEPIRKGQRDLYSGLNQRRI
T1 sequence (P04234 22-171 limits assumed, chain 2 of 2): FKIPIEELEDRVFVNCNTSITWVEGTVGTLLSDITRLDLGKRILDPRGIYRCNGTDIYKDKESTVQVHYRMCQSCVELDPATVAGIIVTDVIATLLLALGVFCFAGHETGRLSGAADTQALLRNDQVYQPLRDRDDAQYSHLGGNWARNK
assayMethodText: flow cytometry competition vs murine SP34-AF488 on human T cells, n = 2
The answer is to be given in µg/mL; state only the numeric part.

Recorded IC50 of huSP34.3.8 Fab-HF (Fab, V domains shown) VH: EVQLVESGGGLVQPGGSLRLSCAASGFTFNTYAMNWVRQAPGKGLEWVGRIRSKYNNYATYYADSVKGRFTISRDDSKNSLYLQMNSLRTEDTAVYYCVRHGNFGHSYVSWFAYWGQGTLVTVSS VL: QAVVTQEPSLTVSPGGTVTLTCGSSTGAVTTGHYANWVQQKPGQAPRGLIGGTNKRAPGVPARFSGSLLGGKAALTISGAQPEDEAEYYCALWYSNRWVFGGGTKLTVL , please.
0.1

What measured IC50 goes with huSP34.13.10 Fab-HF (Fab, V domains shown) VH: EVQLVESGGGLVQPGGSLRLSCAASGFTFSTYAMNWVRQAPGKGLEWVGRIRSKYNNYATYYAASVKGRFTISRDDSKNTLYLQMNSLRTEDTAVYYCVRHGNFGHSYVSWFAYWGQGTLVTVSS VL: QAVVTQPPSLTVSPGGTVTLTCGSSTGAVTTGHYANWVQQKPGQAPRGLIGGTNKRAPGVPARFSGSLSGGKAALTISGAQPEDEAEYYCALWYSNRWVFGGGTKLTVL ?
0.16

Field request: IC50 | item: huSP34.11.9 Fab-HF (Fab, V domains shown) VH: EVQLVESGGGLVQPGGSLRLSCAASGFTFSTYAMNWVRQAPGKGLEWVGRIRSKYNNYATYYAASVKGRFTISRDDSKNSLYLQMNSLRTEDTAVYYCVRHGNFGHSYVSWFAYWGQGTLVTVSS VL: QAVVTQPPSLTVSPGGTVTLTCGSSTGAVTTGHYANWVQQKPGQAPRGLIGGTNKRAPGVPARFSGSLSGGKAALTISGAQPEDEAEYYCALWYSNLWVFGGGTKLTVL
0.22

Given the entry huSP34.11.8 Fab-HF (Fab, V domains shown) VH: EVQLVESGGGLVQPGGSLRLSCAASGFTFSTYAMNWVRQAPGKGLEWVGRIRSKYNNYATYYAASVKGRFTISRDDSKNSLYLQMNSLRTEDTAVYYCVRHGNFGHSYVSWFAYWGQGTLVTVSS VL: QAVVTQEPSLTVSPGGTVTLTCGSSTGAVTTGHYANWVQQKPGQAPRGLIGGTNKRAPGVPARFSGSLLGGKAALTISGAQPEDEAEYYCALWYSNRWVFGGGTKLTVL , report its measured IC50.
0.13

Name the reported IC50 value associated with the binder huSP34.13.9 Fab-HF (Fab, V domains shown) VH: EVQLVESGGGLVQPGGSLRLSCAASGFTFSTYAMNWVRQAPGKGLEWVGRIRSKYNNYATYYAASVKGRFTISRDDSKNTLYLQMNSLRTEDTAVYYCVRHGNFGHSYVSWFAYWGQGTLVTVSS VL: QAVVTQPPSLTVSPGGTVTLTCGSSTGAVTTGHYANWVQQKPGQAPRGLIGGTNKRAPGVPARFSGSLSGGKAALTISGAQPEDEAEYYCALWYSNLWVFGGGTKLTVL
0.25

Which IC50 value belongs to huSP34.12.9 Fab-HF (Fab, V domains shown) VH: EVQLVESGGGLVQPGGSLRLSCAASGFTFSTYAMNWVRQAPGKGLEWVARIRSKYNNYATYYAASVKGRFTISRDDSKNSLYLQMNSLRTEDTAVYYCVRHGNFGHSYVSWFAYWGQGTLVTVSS VL: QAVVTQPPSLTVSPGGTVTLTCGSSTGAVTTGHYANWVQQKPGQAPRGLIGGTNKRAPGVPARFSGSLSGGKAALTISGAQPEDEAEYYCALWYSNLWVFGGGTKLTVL ?
0.49

Sample huSP34.3.7 Fab-HF (Fab, V domains shown) VH: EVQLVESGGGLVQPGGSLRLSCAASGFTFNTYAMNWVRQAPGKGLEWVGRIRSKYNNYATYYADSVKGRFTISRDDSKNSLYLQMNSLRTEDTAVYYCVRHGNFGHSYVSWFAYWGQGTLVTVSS VL: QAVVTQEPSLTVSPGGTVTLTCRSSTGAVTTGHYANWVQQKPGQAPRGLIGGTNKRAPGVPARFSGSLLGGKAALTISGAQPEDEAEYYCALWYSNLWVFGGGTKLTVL — what was its IC50?
0.15

Any idea what IC50 was measured for huSP34.11.10 Fab-HF (Fab, V domains shown) VH: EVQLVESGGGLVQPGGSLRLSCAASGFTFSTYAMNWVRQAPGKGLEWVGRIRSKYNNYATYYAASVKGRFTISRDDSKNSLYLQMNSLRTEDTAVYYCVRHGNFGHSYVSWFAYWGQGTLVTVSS VL: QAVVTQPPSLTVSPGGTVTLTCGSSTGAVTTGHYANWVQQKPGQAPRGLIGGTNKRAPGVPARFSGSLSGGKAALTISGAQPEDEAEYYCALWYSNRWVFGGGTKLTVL ?
0.15

IC50 lookup needed for huSP34.3.9 Fab-HF (Fab, V domains shown) VH: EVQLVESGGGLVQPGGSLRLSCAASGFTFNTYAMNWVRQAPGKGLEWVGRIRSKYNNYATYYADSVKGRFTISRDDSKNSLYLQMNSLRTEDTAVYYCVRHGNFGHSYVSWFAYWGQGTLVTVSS VL: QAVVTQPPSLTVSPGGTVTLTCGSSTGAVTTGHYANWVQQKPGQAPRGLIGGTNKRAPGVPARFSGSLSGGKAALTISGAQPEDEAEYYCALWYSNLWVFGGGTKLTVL , thanks.
0.17

State the recorded IC50 for this entry: huSP34.11.7 Fab-HF (Fab, V domains shown) VH: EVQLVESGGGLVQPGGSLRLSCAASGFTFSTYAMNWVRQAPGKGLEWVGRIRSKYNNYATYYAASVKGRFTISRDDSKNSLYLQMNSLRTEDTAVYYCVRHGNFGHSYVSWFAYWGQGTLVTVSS VL: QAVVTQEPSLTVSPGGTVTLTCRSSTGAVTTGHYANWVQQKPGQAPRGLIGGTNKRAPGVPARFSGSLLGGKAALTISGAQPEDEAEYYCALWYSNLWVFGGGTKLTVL
0.18
